- procedure_text: in vitro
- study_conditions: male, Sprague-Dawley, rat
attribute_measured: viability at 24 h, 300 uM

// query Tell me the measured viability at 24 h, 300 uM of O=C(O)c1cc(-c2ccc(F)cc2F)ccc1O , please.
// result 85 to 90%

###

- procedure_text: in vitro
- study_conditions: male, Sprague-Dawley, rat
attribute_measured: viability at 24 h, 1 mM

Use the examples below as a reference point.
molecule	viability at 24 h, 1 mM
CC[C@H](C)C(=O)O[C@H]1C[C@@H](C)C=C2C=C[C@H](C)[C@H](CC[C@@H]3C[C@@H](O)CC(=O)O3)[C@H]21	~100%
NN [Hydrazine]	80 to 85%
CN(C)[C@@H]1C(O)=C(C(N)=O)C(=O)[C@@]2(O)C(O)=C3C(=O)c4c(O)cccc4[C@@](C)(O)[C@H]3C[C@@H]12	85 to 90%

Respectfully, I request viability at 24 h, 1 mM for each entry included below.
1. COc1ccc2c(c1)c(CC(=O)O)c(C)n2C(=O)c1ccc(Cl)cc1
2. NC(=O)N1c2ccccc2C=Cc2ccccc21 [Carbamazepine]
3. CN(Cc1cnc2nc(N)nc(N)c2n1)c1ccc(C(=O)N[C@@H](CCC(=O)O)C(=O)O)cc1 [Methotrexate]

// result
1: 85 to 90%; 2: ~90%; 3: ~100%
